- Tested on: Pseudomonas aeruginosa
- test protocol: Antibacterial activity against Pseudomonas aeruginosa at 100 ug/ml by cup-plate method
- Assay type: functional
- study conditions: read-out: IZ

{"substance smiles": "Cc1ccccc1NS(=O)(=O)c1ccc(NC(=O)c2cn(CCO)c3c(cc(O)c4ncccc43)c2=O)cc1", "target": "Pseudomonas aeruginosa", "result units": "mm", "zone of inhibition at 100 µg/mL": 4}
{"substance smiles": "COc1ccc(NC(=S)NC(=O)c2cn(CCO)c3c(cc(O)c4ncccc43)c2=O)cc1", "target": "Pseudomonas aeruginosa", "result units": "mm", "zone of inhibition at 100 µg/mL": 8}
{"substance smiles": "COc1ccccc1NC(=O)c1cn(CCO)c2c(cc(O)c3ncccc32)c1=O", "target": "Pseudomonas aeruginosa", "result units": "mm", "zone of inhibition at 100 µg/mL": 0}
{"substance smiles": "O=C(Nc1ccc(S(=O)(=O)Nc2cccc(Cl)c2)cc1)c1cn(CCO)c2c(cc(Cl)c3ncccc32)c1=O", "target": "Pseudomonas aeruginosa", "result units": "mm", "zone of inhibition at 100 µg/mL": 10}
{"substance smiles": "O=C(Nc1ccc(S(=O)(=O)Nc2ccccc2)cc1)c1cn(CCO)c2c(cc(O)c3ncccc32)c1=O", "target": "Pseudomonas aeruginosa", "result units": "mm", "zone of inhibition at 100 µg/mL": 10}
{"substance smiles": "O=C(NC(=S)Nc1cccc([N+](=O)[O-])c1)c1cn(CCO)c2c(cc(Cl)c3ncccc32)c1=O", "target": "Pseudomonas aeruginosa", "result units": "mm", "zone of inhibition at 100 µg/mL": 8}
{"substance smiles": "COc1ccc(NC(=S)NC(=O)c2cn(CCO)c3c(cc(Cl)c4ncccc43)c2=O)cc1", "target": "Pseudomonas aeruginosa", "result units": "mm", "zone of inhibition at 100 µg/mL": 6}
{"substance smiles": "COc1ccccc1NS(=O)(=O)c1ccc(NC(=O)c2cn(CCO)c3c(cc(O)c4ncccc43)c2=O)cc1", "target": "Pseudomonas aeruginosa", "result units": "mm", "zone of inhibition at 100 µg/mL": 6}
{"substance smiles": "N#Cc1cc([N+](=O)[O-])ccc1NS(=O)(=O)c1ccc(NC(=O)c2cn(CCO)c3c(cc(Cl)c4ncccc43)c2=O)cc1", "target": "Pseudomonas aeruginosa", "result units": "mm", "zone of inhibition at 100 µg/mL": 8}
{"substance smiles": "N#Cc1cc([N+](=O)[O-])ccc1NS(=O)(=O)c1ccc(NC(=O)c2cn(CCO)c3c(cc(O)c4ncccc43)c2=O)cc1", "target": "Pseudomonas aeruginosa", "result units": "mm", "zone of inhibition at 100 µg/mL": 8}
{"substance smiles": "O=C(Nc1cccc([N+](=O)[O-])c1)c1cn(CCO)c2c(cc(Cl)c3ncccc32)c1=O", "target": "Pseudomonas aeruginosa", "result units": "mm", "zone of inhibition at 100 µg/mL": 9}
{"substance smiles": "COc1ccc(NS(=O)(=O)c2ccc(NC(=O)c3cn(CCO)c4c(cc(Cl)c5ncccc54)c3=O)cc2)cc1", "target": "Pseudomonas aeruginosa", "result units": "mm", "zone of inhibition at 100 µg/mL": 10}
{"substance smiles": "O=C(Nc1ccc(S(=O)(=O)Nc2cccc(Cl)c2)cc1)c1cn(CCO)c2c(cc(O)c3ncccc32)c1=O", "target": "Pseudomonas aeruginosa", "result units": "mm", "zone of inhibition at 100 µg/mL": 8}
{"substance smiles": "Cc1ccc(NC(=O)c2cn(CCO)c3c(cc(Cl)c4ncccc43)c2=O)cc1", "target": "Pseudomonas aeruginosa", "result units": "mm", "zone of inhibition at 100 µg/mL": 5}
{"substance smiles": "O=C(Nc1ccc(Cl)cc1)c1cn(CCO)c2c(cc(Cl)c3ncccc32)c1=O", "target": "Pseudomonas aeruginosa", "result units": "mm", "zone of inhibition at 100 µg/mL": 6}
{"substance smiles": "O=C(NC(=S)Nc1cccc(O)c1)c1cn(CCO)c2c(cc(Cl)c3ncccc32)c1=O", "target": "Pseudomonas aeruginosa", "result units": "mm", "zone of inhibition at 100 µg/mL": 6}
{"substance smiles": "Cc1ccc(C)c(NC(=O)c2cn(CCO)c3c(cc(Cl)c4ncccc43)c2=O)c1", "target": "Pseudomonas aeruginosa", "result units": "mm", "zone of inhibition at 100 µg/mL": 8}
